meta.source: ChEMBL document CHEMBL1671662

- Tested on: Finegoldia magna
- Procedure summary: Antibacterial activity against Finegoldia magna by CLSI M11-A6 agar dilution method
- Assay type: functional
Reported endpoint: MIC90 (µg/mL)
Number only, in µg/mL; omit the unit.

Form field: reported MIC90 of Cc1ncc([N+](=O)[O-])n1CCO 2

* * *

This listing pairs compounds with measured MIC90.
- Test system: Paeniclostridium sordellii
- Procedure summary: Antibacterial activity against Clostridium sordellii by CLSI M11-A6 agar dilution method
- Type: functional
- Test settings: Paraclostridium sordellii
Number only, in µg/mL; omit the unit.

CCCCCCCCCC(=O)N[C@@H](Cc1c[nH]c2ccccc12)C(=O)N[C@H](CC(N)=O)C(=O)N[C@@H](CC(=O)O)C(=O)N[C@@H]1C(=O)NCC(=O)N[C@@H](CCCN)C(=O)N[C@@H](CC(=O)O)C(=O)N[C@H](C)C(=O)N[C@@H](CC(=O)O)C(=O)NCC(=O)N[C@H](CO)C(=O)N[C@@H]([C@H](C)CC(=O)O)C(=O)N[C@@H](CC(=O)c2ccccc2N)C(=O)O[C@@H]1C :: 8
CN[C@H](CC(C)C)C(=O)N[C@H]1C(=O)N[C@@H](CC(N)=O)C(=O)N[C@H]2C(=O)N[C@H]3C(=O)N[C@H](C(=O)N[C@H](C(=O)O)c4cc(O)cc(O)c4-c4cc3ccc4O)[C@H](O)c3ccc(c(Cl)c3)Oc3cc2cc(c3O[C@@H]2O[C@H](CO)[C@@H](O)[C@H](O)[C@H]2O[C@H]2C[C@](C)(N)[C@H](O)[C@H](C)O2)Oc2ccc(cc2Cl)[C@H]1O :: 4

Form field: reported MIC90 of CC(=O)NC[C@H]1CN(c2ccc(N3CCOCC3)c(F)c2)C(=O)O1 4

Form field: reported MIC90 of CCC[C@@H]1C[C@@H](C(=O)N[C@@H]([C@H]2O[C@H](SC)[C@H](O)[C@@H](O)[C@H]2O)[C@H](C)Cl)N(C)C1 4

* * *

This listing pairs molecules with measured MIC50.
- System: Phocaeicola vulgatus
- Procedure summary: Antibacterial activity against Bacteroides vulgatus by CLSI M11-A6 agar dilution method
- Type: functional
Number only, in µg/mL; omit the unit.

CN[C@H](CC(C)C)C(=O)N[C@H]1C(=O)N[C@@H](CC(N)=O)C(=O)N[C@H]2C(=O)N[C@H]3C(=O)N[C@H](C(=O)N[C@H](C(=O)O)c4cc(O)cc(O)c4-c4cc3ccc4O)[C@H](O)c3ccc(c(Cl)c3)Oc3cc2cc(c3O[C@@H]2O[C@H](CO)[C@@H](O)[C@H](O)[C@H]2O[C@H]2C[C@](C)(N)[C@H](O)[C@H](C)O2)Oc2ccc(cc2Cl)[C@H]1O :: 64
CC(=O)NC[C@H]1CN(c2ccc(N3CCOCC3)c(F)c2)C(=O)O1 :: 2

Let us move to another entry and its MIC50.
Form field: reported MIC50 of Cc1ncc([N+](=O)[O-])n1CCO 0.5

* * *

- Tested on: Bacteroides fragilis
- Procedure summary: Antibacterial activity against Bacteroides fragilis by CLSI M11-A6 agar dilution method
- Type: functional
Reported endpoint: MIC90

CCCCCCCCCC(=O)N[C@@H](Cc1c[nH]c2ccccc12)C(=O)N[C@H](CC(N)=O)C(=O)N[C@@H](CC(=O)O)C(=O)N[C@@H]1C(=O)NCC(=O)N[C@@H](CCCN)C(=O)N[C@@H](CC(=O)O)C(=O)N[C@H](C)C(=O)N[C@@H](CC(=O)O)C(=O)NCC(=O)N[C@H](CO)C(=O)N[C@@H]([C@H](C)CC(=O)O)C(=O)N[C@@H](CC(=O)c2ccccc2N)C(=O)O[C@@H]1C :: > 128 µg/mL
CCCCCCCCCCNCCN[C@@]1(C)C[C@H](O[C@H]2[C@H](Oc3c4cc5cc3Oc3ccc(cc3Cl)[C@@H](O)[C@@H](NC(=O)[C@@H](CC(C)C)NC)C(=O)N[C@@H](CC(N)=O)C(=O)N[C@H]5C(=O)N[C@H]3C(=O)N[C@H](C(=O)N[C@H](C(=O)O)c5cc(O)c(CNCP(=O)(O)O)c(O)c5-c5cc3ccc5O)[C@H](O)c3ccc(c(Cl)c3)O4)O[C@H](CO)[C@@H](O)[C@@H]2O)O[C@@H](C)[C@H]1O :: > 64 µg/mL
Cc1ncc([N+](=O)[O-])n1CCO :: 2 µg/mL

Let us move to another entry and its MIC90.
Form field: reported MIC90 of CCC[C@@H]1C[C@@H](C(=O)N[C@@H]([C@H]2O[C@H](SC)[C@H](O)[C@@H](O)[C@H]2O)[C@H](C)Cl)N(C)C1 > 128 µg/mL
